molecular target: Estrogen receptor (Homo sapiens); test: qHTS assay to identify small molecule agonists of the estrogen receptor alpha (ER-alpha) signaling pathway (AID 743075); settings: HEK293 ER-alpha-UAS-bla, beta-lactamase FRET ratio, 18 h; series mostly up to 70.1 µM;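 note: HEK293 GripTite cells with ER-alpha and UAS-driven beta-lactamase reporter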; note: potency is the fitted concentration of half-maximal effect
Active and inactive are the calls of the source. Calls come from the whole dose curve.

molecule: CCCCCCCCCCCCOCCCN
Potency: inactive

molecule: NCCC[C@H](N)C(=O)O
Potency: inactive

molecule: CO/N=C(\C(=O)N[C@@H]1C(=O)N2C(C(=O)OCOC(=O)C(C)(C)C)=C(/C=C\c3scnc3C)CS[C@H]12)c1csc(N)n1
Potency: inactive

molecule: CS(=O)(=O)OCC(O)C(O)COS(C)(=O)=O (centres undefined)
Potency: inactive

molecule: CCC(CN)CC(C)CCNCC(O)CNCC(C)CC(CC)CN (centres undefined)
Potency: inactive

molecule: CNCC(O)c1ccc(OC(=O)C(C)(C)C)c(OC(=O)C(C)(C)C)c1 (centres undefined)
Potency: inactive

molecule: FCOC(C(F)(F)F)C(F)(F)F
Potency: inactive

molecule: CCCCCCCCCCCCCCCCCC[N+](C)(C)CCC[Si](OC)(OC)OC
Potency: 23.9 µM [activator] (active)

molecule: O=C1CSC2(CCN(CCCN3c4ccccc4Sc4ccc(Cl)cc43)CC2)N1
Potency: inactive

molecule: C[C@]12C=CC(=O)N[C@@H]1CC[C@@H]1[C@@H]2CC[C@]2(C)[C@@H](C(=O)Nc3cc(C(F)(F)F)ccc3C(F)(F)F)CC[C@@H]12
Potency: inactive

molecule: CN(C)c1ccc(C(=C2C=CC(=[N+](C)C)C=C2)c2c(O)c(S(=O)(=O)[O-])cc3cc(S(=O)(=O)O)ccc23)cc1
Potency: inactive

molecule: CCCCC(=O)O[C@H]1CC[C@H]2[C@@H]3CCc4cc(O)ccc4[C@H]3CC[C@]12C
Potency: 0.0006 µM [inconclusive] (active)

molecule: CC(=O)OCC(=O)[C@@]12OC3(CCCC3)O[C@@H]1C[C@H]1[C@@H]3CCC4=CC(=O)C=C[C@]4(C)[C@@]3(F)[C@@H](O)C[C@@]12C
Potency: inactive

molecule: C=CC1=C(C)C2=CC3=NC(=C(CC(=O)[O-])C4=NC(=C(C)C4=C([O-])[O-])C=c4[n-]c(c(C)c4CC)=CC1=N2)C(CCC(=O)[O-])C3C.[Cu+2].[Na+].[Na+].[Na+] (centres undefined)
Potency: inactive

molecule: COC1=C(C(=O)O)N2C(=O)[C@@H](NC(=O)[C@H](N)C3=CCC=CC3)[C@H]2SC1
Potency: inactive

molecule: FC(F)(F)C(F)(F)C(F)(F)C(F)(F)C(F)(F)C(F)(F)F
Potency: inactive

molecule: CC(C)c1nc(N(C)S(C)(=O)=O)nc(-c2ccc(F)cc2)c1/C=C/C(O)CC(O)CC(=O)O (centres undefined)
Potency: inactive

molecule: COC(=O)CCC(=O)CN
Potency: inactive

molecule: C#C[C@]1(O)CC[C@H]2[C@@H]3CCC4=C/C(=N/O)CC[C@@H]4[C@H]3CC[C@@]21CC
Potency: 0.151 µM [inconclusive] (active)

molecule: O=C(O)CO.[NH2-].[NH2-].[Pt+2]
Potency: inactive

molecule: CC(=C\c1ccccc1)/C=C1/SC(=S)N(CC(=O)O)C1=O
Potency: inactive

molecule: CCCCCCCCCCCCCCCC(=O)O[C@@H]1[C@@H](O)[C@@H](O)[C@@H]([C@H](NC(=O)[C@@H]2C[C@@H](CCC)CN2C)[C@H](C)Cl)O[C@@H]1SC
Potency: inactive

molecule: CCC(=O)OCC(=O)[C@@]1(OC(=O)CC)[C@@H](C)C[C@H]2[C@@H]3CCC4=CC(=O)C=C[C@]4(C)[C@@]3(F)[C@@H](O)C[C@@]21C
Potency: 23.9 µM [fluorescent] (active)

molecule: C/C=C1\NC(=O)[C@H]2CSSCC/C=C/[C@H](CC(=O)N[C@H](C(C)C)C(=O)N2)OC(=O)C(C(C)C)NC1=O (some centres undefined)
Potency: 15.1 µM [inconclusive] (active)

molecule: COc1cc(/C=C/C(=O)N2CCN(CC(=O)N3CCCC3)CC2)cc(OC)c1OC
Potency: inactive

molecule: O=C(O)CN(CC(=O)O)CC1=CC2C(=CC1=O)Oc1cc(O)c(CN(CC(=O)O)CC(=O)O)cc1C21OC(=O)c2ccccc21 (centres undefined)
Potency: inactive

molecule: CC(C)[C@@H]1CC[C@@H](C)C[C@H]1OC(=O)c1ccccc1O
Potency: inactive

molecule: CCCCCCCCCCCCCCCCSCC(COC)COP(=O)([O-])OCC[N+](C)(C)C (centres undefined)
Potency: inactive

molecule: CO[C@H]1C[C@H](O[C@H]2[C@H](C)O[C@@H](O[C@@H]3/C(C)=C/C[C@@H]4C[C@@H](C[C@]5(C=C[C@H](C)[C@@H](C6CCCCC6)O5)O4)OC(=O)[C@@H]4C=C(C)[C@@H](O)[C@H]5OC/C(=C\C=C\[C@@H]3C)[C@]54O)C[C@@H]2OC)O[C@@H](C)[C@@H]1O
Potency: inactive

molecule: O=C(NNCS(=O)(=O)O)c1ccncc1
Potency: inactive

molecule: CC(C)CN(C[C@@H](O)[C@H](Cc1ccccc1)NC(=O)O[C@H]1CO[C@H]2OCC[C@H]21)S(=O)(=O)c1ccc(N)cc1
Potency: inactive

molecule: C#C[C@]1(O)CC[C@H]2[C@@H]3CCC4=CC(=O)CC[C@@H]4[C@H]3C(=C)C[C@@]21CC
Potency: 2.39 µM [inconclusive] (active)

molecule: CC(C)CN(C[C@@H](O)[C@H](Cc1ccccc1)NC(=O)O[C@@H]1CCOC1)S(=O)(=O)c1ccc(N)cc1
Potency: inactive

molecule: CN1c2c(nc(N)[nH]c2=O)NCC1CNc1ccc(C(=O)NC(CCC(=O)O)C(=O)O)cc1 (centres undefined)
Potency: inactive
